- SUBJECT_OF_TEST: T1, Terbium (Tb) labeled-SNAP tagged ROBO2 expressed on HEK293 cells (Homo sapiens (Human), UniProt Q9HCK4 22-1378, terbium label on the SNAP tag)
- T1 construct: also called Tb-labeled ROBO2 cells; ROBO2 expressing cells; not shown: SNAP tag
- T1 sequence: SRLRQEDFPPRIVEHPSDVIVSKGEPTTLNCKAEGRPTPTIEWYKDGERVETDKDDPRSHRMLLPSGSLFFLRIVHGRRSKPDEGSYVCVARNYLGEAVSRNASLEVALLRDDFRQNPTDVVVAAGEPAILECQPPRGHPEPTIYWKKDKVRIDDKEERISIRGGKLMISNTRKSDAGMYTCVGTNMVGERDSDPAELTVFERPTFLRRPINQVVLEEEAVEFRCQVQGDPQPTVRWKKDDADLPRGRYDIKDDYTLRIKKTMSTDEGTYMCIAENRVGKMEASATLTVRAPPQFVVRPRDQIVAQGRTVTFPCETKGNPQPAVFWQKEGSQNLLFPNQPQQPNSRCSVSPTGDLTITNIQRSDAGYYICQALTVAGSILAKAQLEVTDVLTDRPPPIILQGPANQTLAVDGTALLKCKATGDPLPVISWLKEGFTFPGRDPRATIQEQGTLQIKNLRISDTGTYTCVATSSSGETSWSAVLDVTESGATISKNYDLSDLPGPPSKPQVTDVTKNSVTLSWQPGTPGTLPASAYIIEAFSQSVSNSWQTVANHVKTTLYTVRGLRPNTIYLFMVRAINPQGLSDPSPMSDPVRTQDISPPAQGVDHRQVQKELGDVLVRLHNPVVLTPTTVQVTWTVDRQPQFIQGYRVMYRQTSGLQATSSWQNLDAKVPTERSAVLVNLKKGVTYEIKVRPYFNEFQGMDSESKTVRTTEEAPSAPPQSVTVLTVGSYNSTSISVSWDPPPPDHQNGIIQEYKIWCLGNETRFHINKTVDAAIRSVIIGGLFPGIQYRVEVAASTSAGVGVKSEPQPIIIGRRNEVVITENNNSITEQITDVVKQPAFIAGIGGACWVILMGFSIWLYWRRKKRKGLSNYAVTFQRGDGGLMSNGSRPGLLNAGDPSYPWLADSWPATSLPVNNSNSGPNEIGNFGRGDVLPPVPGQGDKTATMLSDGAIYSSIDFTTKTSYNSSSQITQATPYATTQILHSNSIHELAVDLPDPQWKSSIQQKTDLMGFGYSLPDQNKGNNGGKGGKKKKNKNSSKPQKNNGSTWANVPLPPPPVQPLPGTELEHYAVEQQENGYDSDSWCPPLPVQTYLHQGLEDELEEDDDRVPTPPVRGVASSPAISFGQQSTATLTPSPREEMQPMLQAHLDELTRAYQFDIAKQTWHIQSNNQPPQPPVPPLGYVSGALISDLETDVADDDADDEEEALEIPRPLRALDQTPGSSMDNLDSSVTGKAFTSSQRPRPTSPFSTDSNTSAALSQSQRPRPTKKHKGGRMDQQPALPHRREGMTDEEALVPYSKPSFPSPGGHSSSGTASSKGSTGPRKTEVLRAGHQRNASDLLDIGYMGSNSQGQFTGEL
- ASSAY_SUMMARY: HTRF, 5 nM d2-SLIT2-N on Tb-SNAP-ROBO2 HEK293 cells, 1 nM antibody
- Protocol: In this assay, terbium (Tb) labeled-SNAP tagged ROBO2 expressing HEK293 cells were incubated with 5 nM d2-labeled SLIT-2N in the presence of 1 nM anti-ROBO2 antibodies for 1 hour. After incubation, fluorescence at 665 nm and 620 nm was measured on an Envision multilabel plate reader. […] Antibodies derived from chain (Abcs series) or CDR shuffling (CTIR-2 series) were evaluated in 11-point, 5-fold dilution series with a top concentration of 1500 nM (Table 2 HTRF IC₅₀). […]
PARAMETER: HTRF Ratio
Enter the number alone.

- BINDER: "CTIR2-15 (antibody, human IgG1, kappa, V domains shown, CDR-shuffled IgG) VH: EVQLVQSGAEVKKPGASVKVSCKASGYTFRGYAMHWVRQAPGQGLEWMGWIDPRTGLTKFPQKFQGRVTMTRDTSITTAYMDLSRLRSDDTAVYYCARESGDDAFDIWGQGTMVTVSS VL: DIVMTQSPSSLSASVGDRVTITCRASQKISSYLNWYQQKPGKAPKLLIYAASSLQYGVPSRFSGSGSGTDFTLTISSLQPEDFATYYCQQSVGLSFGGGTKVEIKR"
  HTRF Ratio: 3750

For CTIR2-8 (antibody, human IgG1, kappa, V domains shown, CDR-shuffled IgG) VH: EVQLVQSGAEVKKPGASVKVSCKASGYTFTGYYMHWVRQAPGQGLEWMGWINPKSGATNFPQKFQGRVTMTRDTSITTAYMDLSRLRSDDTAVYYCARESGDDAFDIWGQGTMVTVSS VL: DIVMTQSPSSLSASVGDRVTITCRASQKISSYLNWYQQKPGKAPKLLIYAASSLQYGVPSRFSGSGSGTDFTLTISSLQPEDFATYYCQQSVGLSFGGGTKVEIKR , write its HTRF Ratio.
3860
